tested on: L1210; assay: Antitumor activity in the mice with intraperitoneal implanted L1210 lymphoid leukemia at the dose 25 mg/kg/day x 5 was determined and number of animals survived on 30 th day were reported; 0/8; assay type: functional, Mus musculus
# reported Survivors; entries follow

compound: C[C@@H]1C[C@H]2[C@@H]3CCC4=CC(=O)C=C[C@]4(C)[C@@]3(F)[C@@H](O)C[C@]2(C)[C@@]1(O)C(=O)COP(=O)(O)OC[C@H]1O[C@@H](n2ccc(N)nc2=O)[C@@H](O)[C@@H]1O
Survivors: 0

Lookup: What value of measured Survivors is listed for C[C@]12C[C@H](O)[C@H]3[C@@H](CCC4=CC(=O)CC[C@@]43C)[C@@H]1CC[C@@H]2C(=O)COP(=O)(O)OC[C@H]1O[C@@H](n2ccc(N)nc2=O)[C@@H](O)[C@@H]1O ?
Found: 0

Lookup: Look up Survivors: C[C@]12CCC(=O)C=C1CC[C@H]1[C@@H]3CC[C@](O)(C(=O)COP(=O)(O)OC[C@H]4O[C@@H](n5ccc(N)nc5=O)[C@@H](O)[C@@H]4O)[C@@]3(C)C[C@H](O)[C@@]12F
Found: 0

====

system: L1210; experiment: Antitumor activity in the mice with intraperitoneal implanted L1210 lymphoid leukemia at the dose 25 mg/kg/day x 5 was determined and number of animals survived on 30 th day were reported; 0/8; assay type: functional, Mus musculus
reported property: Survivors
// no unit, no text: just the number

For orientation, consider the following solved cases.
molecule: C[C@]12CC[C@H]3[C@@H](CCC4=CC(=O)CC[C@@]43C)[C@@H]1CC[C@@H]2C(=O)COP(=O)(O)OC[C@H]1O[C@@H](n2ccc(N)nc2=O)[C@@H](O)[C@@H]1O
tested on: L1210
Survivors: 0

molecule: Nc1ccn([C@@H]2O[C@H](CO)[C@@H](O)[C@@H]2O)c(=O)n1 [CYTARABINE]
tested on: L1210
Survivors: 0

Lookup: So what's the measured Survivors for this one? C[C@]12CCC(=O)C=C1CC[C@@H]1[C@@H]2CC[C@@]2(C)[C@H]1CC[C@]2(O)C(=O)COP(=O)(O)OC[C@H]1O[C@@H](n2ccc(N)nc2=O)[C@@H](O)[C@@H]1O
Found: 0

Where these numbers come from: ChEMBL document CHEMBL1121364
